Origin of values: patent US20250268869A1

Assign pEC50 to each entry below.
System: Daudi (Burkitt Lymphoma) cells
Assay: Intracellular Lactate Accumulation Assay (Lactate-Glo)
Type: cell-based
Settings: Homo sapiens, 2h treatment, read-out: LactateGlo EC50
pEC50: −log10 of the molar value.

Find the recorded pEC50 belonging to CC(C)OC(=O)Nc1ccc(-c2cnc(C3CCC(NC(=O)OC(C)C)CC3)s2)c(S(=O)(=O)NCCN(C)C)c1 (stereo not shown) and report it.
5.30 to 6.00

What do you have for CCNS(=O)(=O)c1cc(Nc2ccc(CC)nn2)ccc1-c1cnc([C@H]2CC[C@H](NC(=O)OC(C)C)CC2)s1 ?
> 7.30

What do you have for CC(C)OC(=O)NC1CCC(c2ncc(-c3ccc(N(C)C(=O)NCc4ccccc4)cc3S(=O)(=O)NC(C)(C)CO)s2)CC1 (stereo not shown) ?
< 5.30

What do you have for CCNS(=O)(=O)c1cc(Nc2ccn[nH]2)ccc1-c1cnc([C@H]2CC[C@H](NC(=O)OC(C)C)CC2)s1 ?
> 7.30
